Listed below: koff values for each entry.
# tested.system: mouse PD-L1 (soluble protein of the kinetic measurements) (mouse) (UniProt Q9EP73)
# Sequence (Q9EP73 19-238 limits assumed): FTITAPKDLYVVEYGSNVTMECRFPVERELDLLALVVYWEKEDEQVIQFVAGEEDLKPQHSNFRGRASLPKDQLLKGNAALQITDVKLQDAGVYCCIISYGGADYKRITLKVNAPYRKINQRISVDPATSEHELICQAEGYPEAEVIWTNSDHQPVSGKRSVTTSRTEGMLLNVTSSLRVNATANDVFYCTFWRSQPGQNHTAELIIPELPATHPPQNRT
# assay.info: dissociation rate constant of scFv phage clone, method not named
# value in s⁻¹; strip the unit string

ME4.B10 scFv phage clone (scFv, V domains shown, part only, scFv linker not given) VH: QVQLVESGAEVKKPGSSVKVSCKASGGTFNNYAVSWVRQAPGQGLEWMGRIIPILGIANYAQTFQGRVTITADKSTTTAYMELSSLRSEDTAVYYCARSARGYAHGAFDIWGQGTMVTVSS VL: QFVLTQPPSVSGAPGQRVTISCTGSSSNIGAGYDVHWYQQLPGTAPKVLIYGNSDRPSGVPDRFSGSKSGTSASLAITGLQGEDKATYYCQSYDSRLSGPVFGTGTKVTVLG    0.000467
ME4.A11 scFv phage clone (scFv, V domains shown, part only, scFv linker not given) VH: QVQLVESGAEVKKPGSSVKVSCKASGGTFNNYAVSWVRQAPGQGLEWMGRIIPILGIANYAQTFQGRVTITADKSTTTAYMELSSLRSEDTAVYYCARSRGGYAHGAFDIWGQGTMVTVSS VL: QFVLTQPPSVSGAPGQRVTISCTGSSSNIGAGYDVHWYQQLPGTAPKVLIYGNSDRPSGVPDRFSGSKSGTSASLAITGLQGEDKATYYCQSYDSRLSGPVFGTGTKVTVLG    0.000486
ME4.A12 scFv phage clone (scFv, V domains shown, part only, scFv linker not given) VH: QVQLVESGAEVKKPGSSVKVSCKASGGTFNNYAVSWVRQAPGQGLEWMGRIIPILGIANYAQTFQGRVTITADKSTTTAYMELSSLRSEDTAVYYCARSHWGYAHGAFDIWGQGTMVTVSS VL: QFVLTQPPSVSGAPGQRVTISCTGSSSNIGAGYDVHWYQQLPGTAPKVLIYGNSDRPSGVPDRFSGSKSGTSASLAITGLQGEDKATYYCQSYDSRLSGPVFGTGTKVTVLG    0.00101
ME4 scFv phage clone (scFv, V domains shown, part only, scFv linker not given; phage display) VH: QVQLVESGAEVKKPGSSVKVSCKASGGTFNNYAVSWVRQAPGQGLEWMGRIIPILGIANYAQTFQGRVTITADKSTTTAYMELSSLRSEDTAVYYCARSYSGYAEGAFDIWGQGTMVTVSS VL: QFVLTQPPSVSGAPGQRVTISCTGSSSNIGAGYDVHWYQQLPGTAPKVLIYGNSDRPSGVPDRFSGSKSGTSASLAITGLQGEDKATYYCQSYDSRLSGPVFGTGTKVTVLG    0.000374
ME4.A2 scFv phage clone (scFv, V domains shown, part only, scFv linker not given) VH: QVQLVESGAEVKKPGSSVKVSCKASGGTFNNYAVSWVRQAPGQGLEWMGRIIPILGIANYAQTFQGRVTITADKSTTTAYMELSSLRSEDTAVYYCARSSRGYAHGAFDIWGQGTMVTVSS VL: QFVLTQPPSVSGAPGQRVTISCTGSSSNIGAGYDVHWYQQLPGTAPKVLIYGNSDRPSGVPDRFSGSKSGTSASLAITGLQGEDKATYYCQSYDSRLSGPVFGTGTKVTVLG    0.000852

Request: Report koff for ME4.B12 scFv phage clone (scFv, V domains shown, part only, scFv linker not given) VH: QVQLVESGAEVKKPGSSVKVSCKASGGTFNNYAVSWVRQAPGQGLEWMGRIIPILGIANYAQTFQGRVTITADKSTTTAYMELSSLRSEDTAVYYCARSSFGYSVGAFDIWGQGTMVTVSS VL: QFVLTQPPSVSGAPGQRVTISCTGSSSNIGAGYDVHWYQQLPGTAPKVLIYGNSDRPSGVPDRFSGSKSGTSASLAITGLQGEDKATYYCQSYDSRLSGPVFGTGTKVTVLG please.
Result: 0.000753
